Would you mind telling me the reported heat capacity change of unfolding of each entry?
B1: Lysozyme C, P61626 (parent)
chain: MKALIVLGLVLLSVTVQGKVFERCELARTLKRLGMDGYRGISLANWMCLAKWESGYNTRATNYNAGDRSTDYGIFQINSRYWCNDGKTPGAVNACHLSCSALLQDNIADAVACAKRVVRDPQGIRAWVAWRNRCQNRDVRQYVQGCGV

Variants of: B1
Condition Parameters: Homo sapiens; pH 2.7; 64.9 °C; Thermal; DSC; glycine 0.05 M; reversible: yes; structure 1LZ1; whole UniProt chain shown
Answers are plain numbers, in kcal/mol/K.

Answered cases to consult:
>>> value_measured("I74V")
1.34
>>> value_measured("I124V")
1.41
>>> value_measured("I107V")
1.91

**Q:** State, in one line, measured heat capacity change of unfolding of I41V
**A:** 1.39
